Quick list: ring closure, isolated yield per entry.
assay: Dithiocarbamate (DTC) stapling of unprotected peptides: Lys side-chain amine + CS2 (Et3N) gives Lys-NH-C(=S)S-, then intramolecular thia-Michael addition to dehydroalanine (Dha, made beforehand from Cys with 2,5-dibromohexanediamide and HPLC-purified); conditions: the molecule shown is the open-chain precursor, 21-membered ring, ethanol/Et3N/CS2 10:1:1 v/v
Quick note: number first, unit second.

C=C(NC(=O)[C@H](C)NC(=O)[C@H](Cc1ccccc1)NC(=O)[C@H](CO)NC(=O)[C@@H](NC(C)=O)[C@@H](C)O)C(=O)N[C@@H](Cc1ccc(O)cc1)C(=O)N[C@@H](Cc1c[nH]c2ccccc12)C(=O)N[C@@H](CC(N)=O)C(=O)N[C@@H](CCCCNC(=S)S)C(=O)N[C@@H](CC(C)C)C(=O)N[C@@H](CO)C(=O)N1CCC[C@H]1C(N)=O | 27%
C=C(NC(=O)[C@H](CCC(=O)O)NC(=O)[C@H](C)NC(=O)[C@H](Cc1ccccc1)NC(=O)[C@H](CCCCNC(=S)S)NC(=O)[C@@H](NC(C)=O)[C@@H](C)O)C(=O)N[C@@H](Cc1c[nH]c2ccccc12)C(=O)N[C@@H](CC(N)=O)C(=O)N[C@@H](CC(C)C)C(=O)N[C@@H](CC(C)C)C(=O)N[C@@H](CO)C(=O)N1CCC[C@H]1C(N)=O | 34%
C=C(NC(=O)[C@H](Cc1c[nH]c2ccccc12)NC(=O)[C@H](Cc1ccc(O)cc1)NC(=O)[C@H](CCC(=O)O)NC(=O)[C@H](CCCCNC(=S)S)NC(=O)[C@H](Cc1ccccc1)NC(=O)[C@H](CO)NC(=O)[C@@H](NC(C)=O)[C@@H](C)O)C(=O)N[C@@H](CC(C)C)C(=O)N[C@@H](CC(C)C)C(=O)N[C@@H](CO)C(=O)N1CCC[C@H]1C(N)=O | 42%

For the molecule C=C(NC(=O)[C@H](C)NC(=O)[C@H](Cc1ccccc1)NC(=O)[C@H](CO)NC(=O)[C@H](CCCCNC(=S)S)NC(C)=O)C(=O)N[C@@H](Cc1ccc(O)cc1)C(=O)N[C@@H](Cc1c[nH]c2ccccc12)C(=O)N[C@@H](CC(N)=O)C(=O)N[C@@H](CC(C)C)C(=O)N[C@@H](CC(C)C)C(=O)N[C@@H](CO)C(=O)N1CCC[C@H]1C(N)=O , give its reported ring closure, isolated yield.
28%

Indicate the recorded ring closure, isolated yield value for this molecule: C=C(NC(=O)[C@H](CC(N)=O)NC(=O)[C@H](Cc1c[nH]c2ccccc12)NC(=O)[C@H](Cc1ccc(O)cc1)NC(=O)[C@H](CCCCNC(=S)S)NC(=O)[C@H](C)NC(=O)[C@H](Cc1ccccc1)NC(=O)[C@H](CO)NC(=O)[C@@H](NC(C)=O)[C@@H](C)O)C(=O)N[C@@H](CC(C)C)C(=O)N[C@@H](CO)C(=O)N1CCC[C@H]1C(N)=O
24%
